// provenance: patent US20200207734A1

# OX2R agonist activity (3 μM, %) per entry
# Test system: human orexin type 2 receptor (Homo sapiens)
# Construct: human orexin type 2 receptor cDNA was inserted into pcDNA3.1(+) plasmid vector (Invitrogen); expressed in transfected cells
# Assay explanation: Measurement of orexin type 2 receptor agonist activity (calcium fluorescence, CHO cells expressing hOX2R)
# Format: cell-based
# Experimental setup: test compound 3 μM; CHO cells expressing human OX2 receptor; DMSO = 0%, orexin A (human) = 100%
# number only, unit % dropped from output

Solved cases below.
CS(=O)(=O)N[C@H]1CCN(C(=O)C2(O)CCC2)[C@H]1Cc1csc(-c2cc(F)cc(F)c2)n1 (relative stereo) [Example 323] : 109
CN(C)C(=O)N1CC[C@H](NS(=O)(=O)N(C)C)[C@@H]1Cc1cccc(-c2ccccc2)c1F : 104
CS(=O)(=O)N[C@H]1CCN(C(=O)C2(O)CCC2)[C@H]1Cc1cccc(-c2cc(F)cc(F)c2)c1 : 99

QUERY: What does the data say about its OX2R agonist activity (3 μM, %)? Entry: `CCS(=O)(=O)N[C@H]1CCN(C(=O)N(C)OC)[C@H]1Cc1cccc(-c2cccc(F)c2)c1`
RESULT: 109

QUERY: Returns the measured OX2R agonist activity (3 μM, %) for the input molecule. Input: `CCS(=O)(=O)N[C@H]1CCN(C(=O)N2CCC2)[C@H]1Cc1csc(-c2cc(F)cc(F)c2)n1`
RESULT: 109

QUERY: Data request, read-out OX2R agonist activity (3 μM, %), for CS(=O)(=O)N[C@H]1CCN(C(=O)C2CCO2)[C@H]1Cc1cccc(-c2cccc(F)c2)c1 (stereo partly shown)
RESULT: 104

QUERY: Which OX2R agonist activity (3 μM, %) value belongs to CC1CCN1C(=O)N1CC[C@H](NS(C)(=O)=O)[C@@H]1Cc1cccc(-c2cccc(F)c2)c1 (stereo partly shown) ?
RESULT: 107

* * *

# Test system: human orexin type 2 receptor (Homo sapiens)
# Construct: human orexin type 2 receptor cDNA was inserted into pcDNA3.1(+) plasmid vector (Invitrogen); expressed in transfected cells
# Assay explanation: Measurement of orexin type 2 receptor agonist activity (calcium fluorescence, CHO cells expressing hOX2R)
# Assay type: cell-based
# Experimental setup: test compound 3 μM; CHO cells expressing human OX2 receptor; DMSO = 0%, orexin A (human) = 100%
Item-by-item account of OX2R agonist activity (3 μM, %)
The reply should be a number in %, with the unit left off.

CCS(=O)(=O)N[C@H]1CCN(C(=O)N(C)OC)[C@H]1Cc1cccc(-c2cc(F)cc(F)c2)c1 [Example 477] : 106
CS(=O)(=O)N[C@H]1CCN(C(=O)N2CCC2)[C@H]1Cc1cccc(-c2cccc(F)c2)c1F [Example 485] : 104
CC1(C(=O)N2CC[C@H](NS(C)(=O)=O)[C@@H]2Cc2csc(-c3cc(F)cc(F)c3)n2)CCC1 (relative stereo) [Example 322] : 104
CC(C)OC(=O)N1CCC[C@H](NS(C)(=O)=O)[C@@H]1CC1CCCN(c2ccccc2)C1 (relative stereo) [Example 214] : 70
COC(=O)N1CC[C@H](NS(C)(=O)=O)[C@@H]1Cc1cccc(-c2ccccc2)c1 (relative stereo) [Example 61] : 74

QUERY: For the molecule CC(C)(O)C(=O)N1CC[C@H](NS(=O)(=O)C2(F)CC2)[C@@H]1Cc1cccc(-c2cccc(F)c2)c1F [Example 450] , what OX2R agonist activity (3 μM, %) is on record?
RESULT: 107

* * *

# Test system: human orexin type 2 receptor (Homo sapiens)
# Construct: human orexin type 2 receptor cDNA was inserted into pcDNA3.1(+) plasmid vector (Invitrogen); expressed in transfected cells
# Assay explanation: Measurement of orexin type 2 receptor agonist activity (calcium fluorescence, CHO cells expressing hOX2R)
# Assay type: cell-based
# Experimental setup: test compound 3 μM; CHO cells expressing human OX2 receptor; DMSO = 0%, orexin A (human) = 100%
Measured OX2R agonist activity (3 μM, %) accompanies every entry in the list below.
# number only, unit % dropped from output

O=C(N1CCC1)N1CC[C@H](NS(=O)(=O)CF)[C@@H]1Cc1cccc(-c2ccccc2)c1F [Example 466] : 108
CC(C)C(=O)N1CC[C@H](NS(C)(=O)=O)[C@@H]1Cc1cccc(-c2ccccc2)c1F (relative stereo) [Example 293] : 102
CC(C)(O)C(=O)N1CC[C@H](NS(=O)(=O)C2CC2)[C@@H]1Cc1cccc(-c2cc(F)cc(F)c2)c1F [Example 439] : 98

Proceed to the following item.
QUERY: State the recorded OX2R agonist activity (3 μM, %) for this entry: CCS(=O)(=O)N[C@H]1CCN(C(=O)C(C)(C)O)[C@H]1Cc1cccc(-c2cccc(F)c2)c1F [Example 389]
RESULT: 102

* * *

Here the recorded OX2R agonist activity (3 μM, %) is given for each entry.
# Test system: human orexin type 2 receptor (Homo sapiens)
# Construct: human orexin type 2 receptor cDNA was inserted into pcDNA3.1(+) plasmid vector (Invitrogen); expressed in transfected cells
# Assay explanation: Measurement of orexin type 2 receptor agonist activity (calcium fluorescence, CHO cells expressing hOX2R)
# Format: cell-based
# Experimental setup: test compound 3 μM; CHO cells expressing human OX2 receptor; DMSO = 0%, orexin A (human) = 100%
Number in %, nothing else.

QUERY: OX2R agonist activity (3 μM, %) lookup needed for CC(C)OC(=O)N1CCC[C@H](NS(=O)(=O)N(C)C)[C@@H]1Cc1cccc(-c2ccccc2)n1 (relative stereo) , thanks.
RESULT: 99

QUERY: Quick one: OX2R agonist activity (3 μM, %) of `CS(=O)(=O)N[C@H]1CCN(C(=O)N2CCC2)[C@H]1Cc1cccc(-c2cccc(F)c2)c1` ?
RESULT: 100

QUERY: For `CS(=O)(=O)N[C@H]1CCN(C(=O)C2(C(F)(F)F)CCC2)[C@H]1Cc1cccc(-c2cccc(F)c2)c1` , what is its reported OX2R agonist activity (3 μM, %)?
RESULT: 101

QUERY: Requested read-out: OX2R agonist activity (3 μM, %). Entry: `CCS(=O)(=O)N[C@H]1CCN(C(=O)C(C)(C)O)[C@H]1Cc1cccc(-c2cc(F)cc(F)c2)c1`
RESULT: 100

QUERY: Recorded OX2R agonist activity (3 μM, %) for CC(C)OC(=O)N1CCC[C@H](NS(C)(=O)=O)[C@@H]1Cn1ccc(-c2ccccc2)n1 (relative stereo) , please?
RESULT: 82

QUERY: GET /values?readout=OX2R agonist activity (3 μM, %)&item= `CCS(=O)(=O)N[C@H]1CCN(C(=O)N2CCC2)[C@H]1Cc1cccc(-c2cccc(F)c2)c1F`
RESULT: 98

QUERY: Query (compound): `O=C(N1CCC1)N1CC[C@H](NS(=O)(=O)CF)[C@@H]1Cc1cccc(-c2cccc(F)c2)c1` ; field requested: OX2R agonist activity (3 μM, %)
RESULT: 93

* * *

# Test system: human orexin type 2 receptor (Homo sapiens, UniProt O43614)
# Construct: human orexin type 2 receptor cDNA was inserted into pcDNA3.1(+) plasmid vector (Invitrogen); expressed in transfected cells
# Sequence (O43614 whole entry): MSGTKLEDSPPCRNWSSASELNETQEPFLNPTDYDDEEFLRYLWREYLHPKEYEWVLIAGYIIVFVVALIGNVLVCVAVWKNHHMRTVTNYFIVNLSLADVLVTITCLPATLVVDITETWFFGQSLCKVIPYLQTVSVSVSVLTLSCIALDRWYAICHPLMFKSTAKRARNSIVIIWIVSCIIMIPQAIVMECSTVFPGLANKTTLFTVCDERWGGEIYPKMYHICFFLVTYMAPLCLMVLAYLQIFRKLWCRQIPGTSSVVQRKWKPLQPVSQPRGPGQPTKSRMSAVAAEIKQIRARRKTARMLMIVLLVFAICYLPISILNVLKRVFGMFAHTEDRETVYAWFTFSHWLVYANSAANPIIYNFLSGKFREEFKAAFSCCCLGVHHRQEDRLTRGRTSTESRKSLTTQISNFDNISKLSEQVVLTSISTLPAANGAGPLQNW
# Assay explanation: Measurement of orexin type 2 receptor agonist activity (calcium fluorescence, CHO cells expressing hOX2R)
# Format: cell-based
# Experimental setup: test compound 3 μM; CHO cells expressing human OX2 receptor; DMSO = 0%, orexin A (human) = 100%
The reader will find reported OX2R agonist activity (3 μM, %) values listed item by item below.
Report the value in % with no unit label.

QUERY: Entry CC(C)OC(=O)N1CCC[C@H](NS(C)(=O)=O)[C@@H]1Cc1cccc(-c2ccccc2)n1 (relative stereo) has what OX2R agonist activity (3 μM, %)?
RESULT: 96

* * *

# Test system: human orexin type 2 receptor (Homo sapiens)
# Construct: human orexin type 2 receptor cDNA was inserted into pcDNA3.1(+) plasmid vector (Invitrogen); expressed in transfected cells
# Assay explanation: Measurement of orexin type 2 receptor agonist activity (calcium fluorescence, CHO cells expressing hOX2R)
# Assay type: cell-based
# Experimental setup: test compound 3 μM; CHO cells expressing human OX2 receptor; DMSO = 0%, orexin A (human) = 100%
Measured metric: OX2R agonist activity (3 μM, %)
The reply should be a number in %, with the unit left off.

Below: 6 compounds and their reported OX2R agonist activity (3 μM, %).
CS(=O)(=O)N[C@H]1CCN(C(=O)C2CCC2)[C@H]1Cc1csc(-c2cccc(F)c2)n1 [Example 320] : 103
O=C(N1CCC1)N1CC[C@H](NS(=O)(=O)CF)[C@@H]1Cc1cccc(-c2cccc(F)c2)c1F : 101
CS(=O)(=O)N[C@H]1CCN(C(=O)C2(C#N)CCC2)[C@H]1Cc1cccc(-c2cccc(F)c2)c1 : 107
O=C(C1CCC1)N1CC[C@H](NS(=O)(=O)CF)[C@@H]1Cc1csc(-c2ccccc2)n1 (relative stereo) : 111
CCS(=O)(=O)N[C@H]1CCN(C(=O)C(C)(C)O)[C@H]1Cc1cccc(-c2cccc(Cl)c2)c1F : 101
O=C(C1CCC1)N1CC[C@H](NS(=O)(=O)C2CC2)[C@@H]1Cc1csc(-c2ccccc2)n1 (relative stereo) [Example 259] : 95

Consider now this further compound.
QUERY: Please report the recorded OX2R agonist activity (3 μM, %) for `CN(C)C(=O)N1CC[C@H](NS(=O)(=O)N(C)C)[C@@H]1Cc1cccc(-c2cccc(F)c2)c1F` .
RESULT: 103
